READOUT_NAME: melting point

Known melting point results, listed for orientation:
[[record]]
compound = "CCOC(=O)CN(C)C(=O)c1ccsc1C(=O)c1ccc(F)cc1"
data_value = "127 to 129 °C"

[[record]]
compound = "CN1Cc2c(C(N)=O)ncn2-c2cccc(Br)c2C1=O"
data_value = "278 to 279 °C"

[[record]]
compound = "COc1cccc([C@H]2O[C@H](CC(=O)NCCc3oc(C(=O)O)cc3C(=O)O)C(=O)N(CC(C)(C)CO)c3ccc(Cl)cc32)c1OC"
data_value = "155 to 157 °C"

[[record]]
compound = "O=C1C=CC2(C=C1)CC(=O)N2OCc1ccccc1"
data_value = "77 to 79 °C"

[[record]]
compound = "COc1ccc(C)nc1I"
data_value = "45 to 50 °C"

[[record]]
compound = "CCCCC(CC)Cn1c(C)cc(C)c(C#N)c1=O (stereo not given)"
data_value = "84 to 89 °C"

[[record]]
compound = "COC(=O)/C(=C/c1ccc(OCCc2nc(-c3ccccc3)oc2C)c2ccsc12)OC"
data_value = "165 °C"

[[record]]
compound = "CCOC(=O)C(=CNC1CC1)C(=O)c1cc(F)c(N2CCC(NC(C)=O)C2)nc1Cl (stereo not given)"
data_value = "71 to 75 °C"


**Q:** Tell me the measured melting point of "O=C(O)/C=C/C=C(c1ccccc1C(F)(F)F)c1ccccc1C(F)(F)F" , please.
**A:** 162 to 164 °C

**Q:** Could you do the same for "COC(=O)c1ccc2c(c1)CCN2C(=O)OC(C)(C)C" , please?
**A:** 107 to 108 °C
